# credit: ChEMBL document CHEMBL1133253

Experiment: Tested for Tmax value at the dose of 10 mg/kg when administered perorally in mouse
Type: ADME, organism-based
Set-up: dose 10 mg/kg, route oral
Settings: in vivo, po
measured property: Tmax (min)

[[record]]
structure_string = "C#CCONC(=O)O[C@H]1[C@@H](O)[C@H](Oc2ccc3c(=O)c(/C(C)=N/OC)c(O)oc3c2C)OC2(CCCC2)[C@@H]1OC"
measured_property = "Tmax"
unit_label = "min"
test_result = 30


====

Test system: Staphylococcus aureus
Assay: IC50 was determined for gyrase B of Staphylococcus aureus against novobiocin (0.5 mg/mL) as reference; IC50nov/IC50comp
Outcome label depends on Ratio relative to 3: at/above gives y, below gives n.

[[record]]
compound = "C#CCONC(=O)O[C@H]1[C@@H](O)[C@H](Oc2ccc3c(O)c(/C(C)=N/OC)c(=O)oc3c2C)O[C@@](C)(CC)[C@@H]1OC"
label_value = "y"

[[record]]
compound = "C#CCONC(=O)O[C@H]1[C@@H](O)[C@H](Oc2ccc3c(O)c(/C(C)=N/OC)c(=O)oc3c2C)OC(CC)(CC)[C@@H]1OC"
label_value = "y"

[[record]]
compound = "CO[C@@H]1[C@@H](OC(N)=O)[C@@H](O)[C@H](Oc2ccc3c(O)c(NC(=O)c4ccc(O)c(CC=C(C)C)c4)c(=O)oc3c2C)OC1(C)C [NOVOBIOCIN]"
label_value = "n"

[[record]]
compound = "C#CCONC(=O)O[C@H]1[C@@H](O)[C@H](Oc2ccc3c(=O)c(/C(C)=N/OC)c(O)oc3c2C)OC2(CCCC2)[C@@H]1OC"
label_value = "n"

[[record]]
compound = "C#CCONC(=O)O[C@H]1[C@@H](O)[C@H](Oc2ccc3c(=O)c(/C(C)=N/OC)c(O)oc3c2C)OC2(CCCCC2)[C@@H]1OC"
label_value = "n"

[[record]]
compound = "C#CCONC(=O)O[C@H]1[C@@H](O)[C@H](Oc2ccc3c(=O)c(/C(C)=N/OC)c(O)oc3c2C)O[C@@](C)(CC=C)[C@@H]1OC"
label_value = "n"

[[record]]
compound = "C#CCONC(=O)O[C@H]1[C@@H](O)[C@H](Oc2ccc3c(=O)c(/C(C)=N/OC)c(O)oc3c2C)OC(C)(C)[C@@H]1OC"
label_value = "y"

[[record]]
compound = "C#CCONC(=O)O[C@H]1[C@@H](O)[C@H](Oc2ccc3c(O)c(/C(C)=N/OC)c(=O)oc3c2C)O[C@@H](CC)[C@@H]1OC"
label_value = "n"

[[record]]
compound = "C#CCONC(=O)O[C@H]1[C@@H](O)[C@H](Oc2ccc3c(=O)c(/C(C)=N/OC)c(O)oc3c2C)O[C@@](C)(C=C)[C@@H]1OC"
label_value = "n"

[[record]]
compound = "CO[C@@H]1[C@@H](OC(=O)c2ccc(C)[nH]2)[C@@H](O)[C@H](Oc2ccc3c(O)c(NC(=O)c4ccc(O)c(CC=C(C)C)c4)c(=O)oc3c2Cl)OC1(C)C [CHLOROBIOCIN]"
label_value = "n"

